assay: Standard protocol for determination of kcat and KM (continuous spectrophotometric assay, Acetyl CoA hydrolysis at 235 nm); type: biochemical; conditions: purified protein; about 23° C.; 20 mM HEPES pH 6.8, 10% ethylene glycol, 0.2 mM acetyl CoA
measured-quantity: Kcat (s⁻¹)
One number for each entry, in s⁻¹.

Completed entries (count: 5):
INSERT INTO assay_data (molecule, measured_quantity, numeric_value) VALUES
  ('SEQ ID NO: 271: GAT polypeptide (protein, 10_17D1, GAT polypeptide) MIEVKPINAEDTYEIRHRILRPNQPLEACKYETDLLGGTFHLGGYYRGKLISIASFHQAEHPELEGQKQYQLRGMATLEGYREQKAGSTLIRHAEELLRKKGADLLWCNARTSASGYYKKLGFSEQGEVYDTPPVGPHILMYKKLT', 'Kcat', 2.937),
  ('SEQ ID NO: 273: GAT polypeptide (protein, 10_18G9, GAT polypeptide) MIEVKPINAEDTYEIRHRILRPNQPLEACKYETDLLGGTFHLGGYYRGKLVSIASFHQAEHSELEGQKQYQLRGMATLEEYREQKAGSTLIRHAEELLRKKGADLLWCNARTSASGYYKKLGFSEQGGVYDIPPVGPHILMYKKLT', 'Kcat', 0.4),
  ('SEQ ID NO: 446: GAT polypeptide (protein, 0_5D7, GAT polypeptide) MIEVKPINAEETYELRHRILRPNQPIEACMYETDLLRGAFHLGGFYRGKLISIASFHQAEHSELEGQKQYQLRGMATLEGYRDQKAGSSLIRHAEQLLRKKGANMLWCNARTTASGYYKKLGFSEQGEIFDTPPVGPHILMYKRIT', 'Kcat', 4.07),
  ('SEQ ID NO: 395: GAT polypeptide (protein, 6_21F4, GAT polypeptide) MIEVKPINAEDTYEIRHRVLRPNQPLEACMYETDLLGGAFHLGGYYRGKLISIASFHQAEHPELEGQKQYQLRGMATLEGYREQKAGSTLIRHAEELLRKKGADLLWCNARTSASGYYKKLGFSEQGEVYDVPPVGPHILMYKKLT', 'Kcat', 0.405),
  ('SEQ ID NO: 415: GAT polypeptide (protein, 7_1C4, GAT polypeptide) MIEVKPINAEDTYEIRHRILRPNQPLEACMYETDLLGGTFHLGGYYRGKLISIASFHQAEHPELEGQKQYQLRGMATLEEYREQKAGSTLIRHAEELLRKKGADLLWCNARTSASGYYKKLGFSEQGGVYDIPPIGPHILMYKKLT', 'Kcat', 0.29);

// Kcat lookup, molecule = SEQ ID NO: 503: GAT polypeptide (protein, 8_1F8, GAT polypeptide) MIEVKPINAEDTYELRHRILRPNQPLEVCMYETDLLRGAFHLGGFYRGKLISIASFHQAEHSDLQGQKQYQLRGMATLEGYREQKAGSSLIKHAEEILRKRGADLLWCNARTSASGYYKKLGFSEQGEIFDTPPVGPHILMYKRIT , result: 1.381
